- systemTested: DCMTase (Mus musculus)
- Construct: DCMTase was purified from mouse erythroleukemia cells as previously described; endogenous in cells; host or cells: mouse erythroleukemia (MEL) cells; enzyme purified from them
- protocolNotes: Dead-end inhibition of poly(dI.dC:dI.dC) methylation by single-stranded DNA
- Assay type: biochemical
- experimentalContext: poly(dI.dC:dI.dC) varied, noncompetitive fit, 15 μM AdoMet; read-out: Kis
recordedEndpoint: pKi
Note on units: pKi is unitless, being -log10 of a concentration expressed in mol/L.

**Query** Look up DCMTase (Mus musculus) data: pKi of 5′-CTGGATCCTTGCCCCGCCCCTTGAATTCCC-3′ (DNA, backbone not given here) [GC-box b] , then report it.
**Result** 5.44

###

- systemTested: DCMTase (Mus musculus, UniProt P13864)
- Construct: DCMTase was purified from mouse erythroleukemia cells as previously described; endogenous in cells; host or cells: mouse erythroleukemia (MEL) cells; enzyme purified from them
- Sequence (P13864 whole entry): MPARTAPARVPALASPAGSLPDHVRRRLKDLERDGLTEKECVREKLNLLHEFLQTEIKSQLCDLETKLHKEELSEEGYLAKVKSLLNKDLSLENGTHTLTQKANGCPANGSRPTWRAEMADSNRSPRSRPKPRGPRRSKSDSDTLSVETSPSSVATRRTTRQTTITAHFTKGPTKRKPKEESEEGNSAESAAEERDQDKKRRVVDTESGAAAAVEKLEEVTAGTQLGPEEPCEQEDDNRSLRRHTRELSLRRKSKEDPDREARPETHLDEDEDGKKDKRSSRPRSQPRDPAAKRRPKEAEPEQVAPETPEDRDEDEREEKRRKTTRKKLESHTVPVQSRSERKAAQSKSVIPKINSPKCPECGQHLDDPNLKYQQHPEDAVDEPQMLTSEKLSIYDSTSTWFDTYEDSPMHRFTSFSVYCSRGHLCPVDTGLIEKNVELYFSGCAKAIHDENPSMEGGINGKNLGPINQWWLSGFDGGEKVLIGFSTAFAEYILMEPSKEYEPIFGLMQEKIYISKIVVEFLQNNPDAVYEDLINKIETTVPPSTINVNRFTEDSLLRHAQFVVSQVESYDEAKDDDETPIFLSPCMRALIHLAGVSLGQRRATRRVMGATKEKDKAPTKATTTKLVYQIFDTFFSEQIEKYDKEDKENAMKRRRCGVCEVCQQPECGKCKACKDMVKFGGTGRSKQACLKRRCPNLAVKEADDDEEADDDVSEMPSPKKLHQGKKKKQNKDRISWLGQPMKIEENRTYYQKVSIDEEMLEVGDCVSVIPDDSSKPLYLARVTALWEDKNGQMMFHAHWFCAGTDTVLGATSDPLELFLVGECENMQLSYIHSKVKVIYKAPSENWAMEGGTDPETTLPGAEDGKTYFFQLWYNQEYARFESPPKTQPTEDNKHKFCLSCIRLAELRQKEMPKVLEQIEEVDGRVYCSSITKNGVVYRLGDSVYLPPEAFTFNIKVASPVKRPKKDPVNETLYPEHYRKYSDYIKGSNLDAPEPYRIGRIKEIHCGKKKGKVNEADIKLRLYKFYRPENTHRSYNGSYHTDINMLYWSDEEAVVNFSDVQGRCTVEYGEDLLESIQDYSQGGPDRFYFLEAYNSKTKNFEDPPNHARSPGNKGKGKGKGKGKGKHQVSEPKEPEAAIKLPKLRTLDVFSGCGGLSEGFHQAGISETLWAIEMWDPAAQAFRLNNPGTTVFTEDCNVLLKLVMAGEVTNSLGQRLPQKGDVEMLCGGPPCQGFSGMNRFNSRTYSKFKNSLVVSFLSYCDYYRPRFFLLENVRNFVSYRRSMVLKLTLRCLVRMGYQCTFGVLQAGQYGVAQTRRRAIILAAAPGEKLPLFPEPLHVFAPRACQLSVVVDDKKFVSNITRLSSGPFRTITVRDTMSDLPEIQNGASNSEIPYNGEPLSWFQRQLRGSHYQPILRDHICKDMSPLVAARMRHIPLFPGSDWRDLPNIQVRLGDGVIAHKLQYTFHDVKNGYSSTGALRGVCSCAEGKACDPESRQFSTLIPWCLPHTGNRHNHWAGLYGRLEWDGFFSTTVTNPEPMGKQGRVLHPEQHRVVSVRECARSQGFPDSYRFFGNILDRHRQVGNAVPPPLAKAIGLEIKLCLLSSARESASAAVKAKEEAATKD
- protocolNotes: Product inhibition studies, steady-state
- Assay type: biochemical
- experimentalContext: varied AdoMet, fixed poly(dIdC:dIdC), competitive; read-out: Inhibition Constant Kis
recordedEndpoint: Ki (nM)
Answer format: numeric, nM implied, no suffix.

**Query** With DCMTase (Mus musculus, UniProt P13864) as the test system, provide measured Ki for this compound: Nc1ncnc2c1ncn2[C@@H]1O[C@H](CSCC[C@H](N)C(=O)O)[C@@H](O)[C@H]1O
**Result** 1400
